Biological target: NK1 (Homo sapiens, UniProt P25103)
Sequence (P25103 whole entry): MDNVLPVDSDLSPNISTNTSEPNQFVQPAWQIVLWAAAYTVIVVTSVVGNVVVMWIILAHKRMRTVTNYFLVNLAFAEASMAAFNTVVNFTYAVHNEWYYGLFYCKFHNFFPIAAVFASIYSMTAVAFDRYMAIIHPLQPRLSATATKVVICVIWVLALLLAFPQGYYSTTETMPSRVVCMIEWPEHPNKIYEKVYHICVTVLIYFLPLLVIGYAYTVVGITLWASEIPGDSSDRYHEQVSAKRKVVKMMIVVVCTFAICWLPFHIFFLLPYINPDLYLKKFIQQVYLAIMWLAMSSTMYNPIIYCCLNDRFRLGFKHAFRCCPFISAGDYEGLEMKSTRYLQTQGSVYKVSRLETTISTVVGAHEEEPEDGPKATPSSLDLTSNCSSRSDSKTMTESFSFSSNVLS
Test: Signal transduction (ST), intracellular Ca++ (FLIPR), NK1 antagonistic activity
Assay type: cell-based
Details: read-out: pIC50 NK1 (converted)
Condition met if IC50 is below 30 nM. Condition not met if not; exact matches included in Condition not met.

Answered cases to consult:
O=C(CN1CCNCC1)N1CCC(N2CCN([C@H]3CCN(C(=O)c4cc(C(F)(F)F)cc(C(F)(F)F)c4)[C@H](Cc4ccccc4)C3)CC2)C1 (some centres unmarked) [Compound 201]: Condition not met
Cc1cc(C)cc(C(=O)N2CC[C@H](N3CCN(C4CCN(C(=O)c5ccoc5)C4)CC3)C[C@H]2Cc2ccccc2)c1 (some centres unmarked) [Compound 85]: Condition not met
O=C(c1ccoc1)N1CC[C@H](N2CCN([C@H]3CCN(C(=O)c4cc(C(F)(F)F)cc(C(F)(F)F)c4)[C@H](Cc4ccc(Cl)c(Cl)c4)C3)CC2)C1 [Compound 326]: Condition met

Prompt: Is IC50 of O=C(c1c[nH]c2ccccc12)N1CCC(N2CCN([C@H]3CCN(C(=O)c4cc(C(F)(F)F)cc(C(F)(F)F)c4)[C@H](Cc4ccccc4)C3)CC2)C1 (some centres unmarked) [Compound 56] strictly below 30 nM?
Response: Condition not met

Prompt: Let us now turn to O=C(C1CCOC1)N1CCC(N2CCN(C3CCN(C(=O)c4cc(C(F)(F)F)cc(C(F)(F)F)c4)C(Cc4ccc(Cl)c(Cl)c4)C3)CC2)C1 (single isomer, unassigned) [Compound 249]
Response: Condition not met

Prompt: Let us now turn to O=C(Cc1cccs1)N1CCC(N2CCN([C@H]3CCN(C(=O)c4cc(C(F)(F)F)cc(C(F)(F)F)c4)[C@H](Cc4ccccc4)C3)CC2)C1 (some centres unmarked) [Compound 67]
Response: Condition met

----------
Molecular target: NK1 (Homo sapiens, UniProt P25103)
Assay: Signal transduction (ST), intracellular Ca++ (FLIPR), NK1 antagonistic activity
Type: cell-based
Conditions: read-out: pIC50 NK1 (converted)
MEASURED PROPERTY: IC50
Express the reported value numerically, then name its unit.

Cc1nccn1CC(=O)N1CCC(N2CCN(C3CCN(C(=O)c4cc(C(F)(F)F)cc(C(F)(F)F)c4)C(Cc4ccccc4)C3)CC2)C1 (stereo not drawn): 20 nM
O=C(CN1CCCC1)N1CCC(N2CCN(C3CCN(C(=O)c4cc(C(F)(F)F)cc(C(F)(F)F)c4)C(Cc4ccccc4)C3)CC2)C1 (stereo not drawn): 20 nM

Next, consider the following compound.
Prompt: I'd like to know its IC50. The compound in question is `O=C(c1ccsc1)N1CC[C@H](N2CCN([C@@H]3CCN(C(=O)c4cc(C(F)(F)F)cc(C(F)(F)F)c4)[C@@H](Cc4ccc(Cl)c(Cl)c4)C3)CC2)C1`
Response: 50.1 nM

----------
Catalogue of IC50 values
Target: NK1 (Homo sapiens)
Test: Signal transduction (ST), intracellular Ca++ (FLIPR), NK1 antagonistic activity
Assay type: cell-based
Conditions: read-out: pIC50 NK1 (converted)
State the answer as a number, implicitly in nM.

CC(C)N/C(=N\C#N)N1CCC(N2CCN(C3CCN(C(=O)c4cc(C(F)(F)F)cc(C(F)(F)F)c4)C(Cc4ccccc4)C3)CC2)C1 (centres unmarked): 20
O=C(c1cc(C(F)(F)F)cc(C(F)(F)F)c1)N1CCC(N2CCN(C3CCN(S(=O)(=O)c4cccs4)C3)CC2)CC1Cc1ccc(F)c(F)c1 (single isomer, unassigned): 10
O=C(c1cc(C(F)(F)F)cc(C(F)(F)F)c1)N1CC[C@H](N2CCN(C3CCN(S(=O)(=O)c4ccc(COCc5ccccc5)s4)C3)CC2)C[C@H]1Cc1ccccc1 (some centres unmarked): 200

Prompt: I'd like to know its IC50. The compound in question is Cc1occc1C(=O)N1CCC(N2CCN([C@H]3CCN(C(=O)c4cc(C(F)(F)F)cc(C(F)(F)F)c4)[C@H](Cc4ccccc4)C3)CC2)C1 (some centres unmarked)
Response: 25.1

Prompt: Let us now turn to O=C(C1CCCC1)N1CCC(N2CCN([C@H]3CCN(C(=O)c4cc(C(F)(F)F)cc(C(F)(F)F)c4)[C@H](Cc4ccccc4)C3)CC2)C1 (some centres unmarked)
Response: 20

----------
Target: NK1 (Homo sapiens)
Test: Signal transduction (ST), intracellular Ca++ (FLIPR), NK1 antagonistic activity
Assay type: cell-based
Conditions: read-out: pIC50 NK1 (converted)
Catalogue of IC50 values
Express the reported value numerically, then name its unit.

CC(C)N1CC(CN2CCC(N3CCN(C4CCN(C(=O)c5cc(C(F)(F)F)cc(C(F)(F)F)c5)C(Cc5ccccc5)C4)CC3)C2)OC1=O (centres unmarked): 31.6 nM
Cc1nnsc1C(=O)N1CCC(N2CCN(C3CCN(C(=O)c4cc(C(F)(F)F)cc(C(F)(F)F)c4)C(Cc4ccccc4)C3)CC2)C1 (single isomer, unassigned) [Compound 381]: 5.01 nM
O=C(c1snnc1-c1ccccc1)N1CCC(N2CCN([C@H]3CCN(C(=O)c4cc(C(F)(F)F)cc(C(F)(F)F)c4)[C@H](Cc4ccccc4)C3)CC2)C1 (some centres unmarked): 39.8 nM
O=C(c1ccccc1Cl)N1CCC(N2CCN(C3CCN(C(=O)c4cc(C(F)(F)F)cc(C(F)(F)F)c4)C(Cc4ccccc4)C3)CC2)C1 (single isomer, unassigned) [Compound 160]: 10 nM

Next, consider the following compound.
Prompt: Give IC50 (NK1 (Homo sapiens)) of the following compound: O=C(c1ccccc1Cl)N1CCC(N2CCN(C3CCN(C(=O)c4cc(C(F)(F)F)cc(C(F)(F)F)c4)C(Cc4ccc(F)c(F)c4)C3)CC2)C1 (single isomer, unassigned) [Compound 211]
Response: 6.31 nM

----------
Target: NK3 (Homo sapiens, UniProt P29371)
Sequence (P29371 whole entry): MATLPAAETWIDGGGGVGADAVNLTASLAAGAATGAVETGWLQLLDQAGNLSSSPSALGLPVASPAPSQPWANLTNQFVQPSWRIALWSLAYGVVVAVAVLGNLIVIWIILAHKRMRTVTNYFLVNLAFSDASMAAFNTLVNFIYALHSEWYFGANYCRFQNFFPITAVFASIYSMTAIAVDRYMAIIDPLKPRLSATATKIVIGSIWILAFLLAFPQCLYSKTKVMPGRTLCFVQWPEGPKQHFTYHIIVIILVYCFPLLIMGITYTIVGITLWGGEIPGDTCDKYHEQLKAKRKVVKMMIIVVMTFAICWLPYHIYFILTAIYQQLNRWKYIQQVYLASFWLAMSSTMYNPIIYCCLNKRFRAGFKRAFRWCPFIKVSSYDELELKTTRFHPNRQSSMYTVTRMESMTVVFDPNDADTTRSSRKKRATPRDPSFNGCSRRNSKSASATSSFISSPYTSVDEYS
Experiment: Signal transduction (ST), intracellular Ca++ (FLIPR), NK3
Format: cell-based
Settings: read-out: pIC50 NK3 (converted)
Method: [The procedure below names another target; the source lists this target under the same test.] This test evaluates in vitro functional NK1 antagonistic activity. For the measurements of intracellular Ca^++ concentrations the cells were grown on 96-well (black wall/transparent bottom) plates from Costar for 2 days until they reached confluence. […] The cells were preincubated with a concentration range of antagonists for 20 min at RT and Ca^++-signals after addition of the agonists were measured in a Fluorescence Image Plate Reader (FLIPR from Molecular Devices, Crawley, England). […]
MEASURED PROPERTY: IC50

CC(C(=O)N1CCC(N2CCN(C3CCN(C(=O)c4cc(C(F)(F)F)cc(C(F)(F)F)c4)C(Cc4ccc(Cl)c(Cl)c4)C3)CC2)C1)c1ccccc1 (centres unmarked) [Compound 176]: 1000 nM
COc1ccc(OC)c(S(=O)(=O)N2CCC(N3CCN([C@H]4CCN(C(=O)c5cc(C(F)(F)F)cc(C(F)(F)F)c5)[C@H](Cc5ccccc5)C4)CC3)C2)c1 (some centres unmarked) [Compound 411]: 1000 nM
O=C(C(=O)N1CCC(N2CCN(C3CCN(C(=O)c4cc(C(F)(F)F)cc(C(F)(F)F)c4)C(Cc4ccccc4)C3)CC2)C1)c1ccco1 (single isomer, unassigned) [Compound 191]: 2510 nM

Prompt: I'd like to know its IC50. The compound in question is Cc1ccccc1C(=O)N1CCC(N2CCN([C@H]3CCN(C(=O)c4cc(C(F)(F)F)cc(C(F)(F)F)c4)[C@H](Cc4ccccc4)C3)CC2)C1 (some centres unmarked) [Compound 13]
Response: 200 nM

Prompt: Let us now turn to O=C(C(c1ccccc1)n1cc(Br)cn1)N1CCC(N2CCN([C@H]3CCN(C(=O)c4cc(C(F)(F)F)cc(C(F)(F)F)c4)[C@H](Cc4ccccc4)C3)CC2)C1 (some centres unmarked) [Compound 111]
Response: 6310 nM

Prompt: Let us now turn to O=C(c1ccccc1F)N1CCC(N2CCN(C3CCN(C(=O)c4cc(C(F)(F)F)cc(C(F)(F)F)c4)C(Cc4ccc(Cl)c(Cl)c4)C3)CC2)C1 (centres unmarked) [Compound 174]
Response: 1000 nM

Prompt: Let us now turn to Cc1nnsc1C(=O)N1CCC(N2CCN(C3CCN(C(=O)c4cc(C(F)(F)F)cc(C(F)(F)F)c4)C(Cc4ccc(F)c(F)c4)C3)CC2)C1 (single isomer, unassigned) [Compound 236]
Response: 5010 nM

Prompt: Let us now turn to O=C(C1CC1)N1CCC(N2CCN(C3CCN(C(=O)c4cc(C(F)(F)F)cc(C(F)(F)F)c4)C(Cc4ccc(F)c(F)c4)C3)CC2)C1 (single isomer, unassigned) [Compound 231]
Response: 3160 nM

----------
Catalogue of IC50 values
Target: UniProt P25103
Experiment: Signal transduction (ST), intracellular Ca++ (FLIPR), NK1 antagonistic activity
Type: cell-based
Conditions: read-out: pIC50 NK1 (converted)
State the answer as a number, implicitly in nM.

Sample answers from the record:
N#Cc1cccc(C(=O)N2CCC(N3CCN([C@H]4CCN(C(=O)c5cc(C(F)(F)F)cc(C(F)(F)F)c5)[C@H](Cc5ccccc5)C4)CC3)C2)c1 (some centres unmarked): 79.4
CC(C)(C)OC(=O)N1CCC[C@@H]1C(=O)N1CCC(N2CCN([C@H]3CCN(C(=O)c4cc(C(F)(F)F)cc(C(F)(F)F)c4)[C@H](Cc4ccccc4)C3)CC2)C1 (some centres unmarked): 7.94
CN1CCN(C(C(=O)N2CCC(N3CCN([C@H]4CCN(C(=O)c5cc(C(F)(F)F)cc(C(F)(F)F)c5)[C@H](Cc5ccccc5)C4)CC3)C2)c2ccccc2)CC1 (some centres unmarked): 63.1
O=C(c1cccs1)N1CCC(N2CCN([C@H]3CCN(C(=O)c4cc(C(F)(F)F)cc(C(F)(F)F)c4)[C@H](Cc4ccccc4)C3)CC2)C1 (some centres unmarked): 25.1

Next, consider the following compound.
Prompt: I'd like to know its IC50. The compound in question is O=C(c1cc(C(F)(F)F)cc(C(F)(F)F)c1)N1CC[C@H](N2CCN(C3CCN(C(=C[N+](=O)[O-])N4CCCC4)C3)CC2)C[C@H]1Cc1ccccc1 (some centres unmarked)
Response: 15.8
